Tested on: NCI-H522 lung
Assay: NCI-60 one-dose screen, 48 h
Details: 10 µM unless noted
The panel holds about 83,000 compounds, 20% with a hit somewhere; the sample as a whole holds those more often. Active and inactive are the calls of the source. How the source made its calls: active means growth percent below 10; inactive means the rest.
In this exercise, the only acceptable responses are YES (active), NO (inactive)

# Molecule, Study System, Group
records = [
    ("Clc1ccc2c(NCCCN3CCOCC3)c3oc4ccccc4c3nc2c1", "NCI-H522 lung", "NO"),
    ("N#Cc1c(-c2ccc(F)cc2)nc2c(C#N)c(Nc3ccccc3)nn2c1N", "NCI-H522 lung", "NO"),
    ("Clc1ccc2oc3c(NCCCN4CCOCC4)c4ccccc4nc3c2c1", "NCI-H522 lung", "NO"),
    ("COc1ccc(C(=O)c2cc(C(=O)/C=C/c3c(Cl)cccc3Cl)c3cc(C)ccn23)cc1", "NCI-H522 lung", "NO"),
    ("O=C(N/N=C/c1cccs1)c1[nH]c2ccc(Br)cc2c1-c1ccccc1", "NCI-H522 lung", "YES"),
    ("CS(=O)(=O)Nc1ccc(-c2nn(-c3ccc(S(C)(=O)=O)cc3)cc2/C=C/C(=O)c2ccc(NC(=O)CO[N+](=O)[O-])cc2)cc1", "NCI-H522 lung", "NO"),
    ("Nc1nc(N)c2c(n1)NC(c1ccc(F)cc1)CC(c1ccc(Nc3nc(NCCO)nc(Nc4ccc(Cl)cc4)n3)cc1)=N2 (centres undefined)", "NCI-H522 lung", "YES"),
    ("N/C(=N\\c1nc2c(Cl)cc(Cl)cc2s1)C(Cl)(Cl)Cl", "NCI-H522 lung", "NO"),
]

// next entry
Dear colleague, could you share the recorded outcome for CN(C)CCCNc1c2ccc(Cl)cc2nc2c1oc1ccccc12 when you have a moment?
YES
